- assay_target: EGFR wildtype (WT) (Homo sapiens)
- Sequence (P00533 25-1210): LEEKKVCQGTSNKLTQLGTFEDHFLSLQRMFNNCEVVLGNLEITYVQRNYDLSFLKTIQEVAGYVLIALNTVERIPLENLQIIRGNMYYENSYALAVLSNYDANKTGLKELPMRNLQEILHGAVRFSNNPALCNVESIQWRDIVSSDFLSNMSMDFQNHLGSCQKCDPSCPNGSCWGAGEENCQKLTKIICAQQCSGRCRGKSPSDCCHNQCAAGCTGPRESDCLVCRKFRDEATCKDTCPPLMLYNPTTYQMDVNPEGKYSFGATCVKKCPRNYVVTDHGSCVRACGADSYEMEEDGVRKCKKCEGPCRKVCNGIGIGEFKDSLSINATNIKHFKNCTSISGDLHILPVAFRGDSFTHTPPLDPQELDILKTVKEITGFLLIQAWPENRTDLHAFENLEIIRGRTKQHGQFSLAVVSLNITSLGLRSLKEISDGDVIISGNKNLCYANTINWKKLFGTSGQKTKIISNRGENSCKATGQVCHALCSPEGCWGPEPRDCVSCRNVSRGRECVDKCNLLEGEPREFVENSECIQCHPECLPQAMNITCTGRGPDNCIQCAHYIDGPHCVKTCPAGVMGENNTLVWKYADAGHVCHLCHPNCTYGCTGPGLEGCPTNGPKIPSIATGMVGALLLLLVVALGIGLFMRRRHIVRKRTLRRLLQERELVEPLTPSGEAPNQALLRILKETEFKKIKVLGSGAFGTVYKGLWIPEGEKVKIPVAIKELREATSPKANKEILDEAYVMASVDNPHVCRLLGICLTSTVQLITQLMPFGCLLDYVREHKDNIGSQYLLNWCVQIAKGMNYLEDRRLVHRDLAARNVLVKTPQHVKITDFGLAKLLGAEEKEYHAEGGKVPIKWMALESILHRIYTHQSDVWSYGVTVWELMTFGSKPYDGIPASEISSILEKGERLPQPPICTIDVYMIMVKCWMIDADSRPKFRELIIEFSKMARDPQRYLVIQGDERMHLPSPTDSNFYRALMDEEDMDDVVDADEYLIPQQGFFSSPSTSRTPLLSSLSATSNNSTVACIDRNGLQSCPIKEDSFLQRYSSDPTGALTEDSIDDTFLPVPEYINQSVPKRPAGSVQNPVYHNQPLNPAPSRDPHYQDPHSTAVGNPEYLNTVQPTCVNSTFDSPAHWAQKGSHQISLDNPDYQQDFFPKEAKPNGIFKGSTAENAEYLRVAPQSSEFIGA
- assay_name: Biochemical EGFR kinase inhibition assay (Lance Ultra TR-FRET), wildtype
- conditions_used: IC50 WT (nM), 100 μM ATP
Could you please report measured IC50 for the items listed next?
API: value field is a number in nM; no unit string.

Please fill in: IC50 reported for CC1(CO)CCN(c2cc(Nc3ccnc(-c4cnn(S(=O)(=O)C5CC5)c4)n3)ncc2C#Cc2cccc(C(=O)N3CCOCC3)n2)CC1 [Example 265] = 6520

Item: CC1(CO)CCN(c2cc(Nc3ccnc(-c4cnn(S(=O)(=O)C5CC5)c4)n3)ncc2C#CC2(O)CCOCC2)CC1 [Example 195] | IC50: 8540

Looking up CC1(O)CCN(c2cc(Nc3ccnc(-c4cnn(S(=O)(=O)C5CC5)c4)n3)ncc2C#CC2CCN(C(=O)C(F)(F)F)C2)CC1 (stereo not drawn) [Example 410] , I found its IC50 recorded as 7420

So, CC1(CO)CCN(c2cc(Nc3ccnc(-c4cnn(S(=O)(=O)C5CC5)c4)n3)ncc2C#CC2CC(C(C)(C)O)C2)CC1 (stereo not drawn) [Example 266] ? Its IC50 was 1230

----------
- assay_target: EGFR Del19/T790M/C797S (Homo sapiens, UniProt P00533, C797S/DEL746-750/T790M)
- Sequence (P00533 with tags, fused parts or gaps DEL746-750/T790M/C797S): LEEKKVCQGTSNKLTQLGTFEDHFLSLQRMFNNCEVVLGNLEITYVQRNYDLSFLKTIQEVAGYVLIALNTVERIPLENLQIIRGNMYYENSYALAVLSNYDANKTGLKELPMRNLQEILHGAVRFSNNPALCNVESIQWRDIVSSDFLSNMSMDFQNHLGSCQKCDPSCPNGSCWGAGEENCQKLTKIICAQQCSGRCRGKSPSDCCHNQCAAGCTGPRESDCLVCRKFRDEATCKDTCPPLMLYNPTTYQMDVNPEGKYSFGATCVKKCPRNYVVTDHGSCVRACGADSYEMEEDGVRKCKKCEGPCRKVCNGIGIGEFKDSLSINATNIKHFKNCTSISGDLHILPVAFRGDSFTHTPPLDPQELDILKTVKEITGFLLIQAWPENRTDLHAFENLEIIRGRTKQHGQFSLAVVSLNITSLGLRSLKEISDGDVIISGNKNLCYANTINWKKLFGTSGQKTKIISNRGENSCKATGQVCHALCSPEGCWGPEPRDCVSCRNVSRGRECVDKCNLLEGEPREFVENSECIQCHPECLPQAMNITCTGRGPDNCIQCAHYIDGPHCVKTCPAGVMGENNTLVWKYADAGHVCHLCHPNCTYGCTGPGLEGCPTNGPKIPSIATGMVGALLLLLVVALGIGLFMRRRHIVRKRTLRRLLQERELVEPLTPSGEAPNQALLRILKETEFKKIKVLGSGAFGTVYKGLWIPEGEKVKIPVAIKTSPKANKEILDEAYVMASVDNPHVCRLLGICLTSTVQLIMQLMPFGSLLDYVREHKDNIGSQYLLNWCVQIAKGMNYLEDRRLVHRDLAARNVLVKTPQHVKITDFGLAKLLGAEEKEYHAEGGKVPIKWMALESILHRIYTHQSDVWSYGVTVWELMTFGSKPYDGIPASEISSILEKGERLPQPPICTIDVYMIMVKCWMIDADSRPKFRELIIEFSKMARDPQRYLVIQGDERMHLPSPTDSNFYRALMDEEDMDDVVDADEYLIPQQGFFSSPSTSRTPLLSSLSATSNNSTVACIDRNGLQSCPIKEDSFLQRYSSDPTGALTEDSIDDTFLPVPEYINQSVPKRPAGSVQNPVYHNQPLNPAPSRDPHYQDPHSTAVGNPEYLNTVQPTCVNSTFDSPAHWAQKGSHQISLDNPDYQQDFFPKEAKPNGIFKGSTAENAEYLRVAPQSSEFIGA
- assay_name: Biochemical EGFR kinase inhibition assay (Lance Ultra TR-FRET), triple mutant del19/T790M/C797S
- conditions_used: ATP at Km; read-out: IC50 Del19/T790M/C797S (nM), Km ATP
IC50 under 0.9 nM gets Y, anything at or over 0.9 nM gets N.

In: For C#Cc1cnc(Nc2ccnc(-c3cnn(S(=O)(=O)C4CC4)c3)n2)cc1N1CCC(C)(CO)CC1 , is the recorded IC50 below the cut-off of 0.9 nM?
Out: Y

In: IC50 strictly < 0.9 nM for this compound? CN(C)C[C@H]1CC[C@@H](Nc2cc(Nc3ccnc(-c4cnn(S(=O)(=O)C5CC5)c4)n3)ncc2C#Cc2cnn(C)c2)CC1
Out: Y

In: Please let me know if O=S(=O)(C1CC1)n1cc(-c2nccc(Nc3cc(N4CCC5(CCCO5)CC4)c(C#Cc4cccnc4)cn3)n2)cn1 shows IC50 below 0.9 nM.
Out: N

In: Given the entry CN(C)C(=O)c1ccc(C#Cc2cnc(Nc3ccnc(-c4cnn(S(=O)(=O)C5CC5)c4)n3)cc2N2CCC(C)(CO)CC2)cc1 , would its reported IC50 be below 0.9 nM?
Out: N

In: Could you please tell me whether IC50 recorded for O=S(=O)(C1CC1)n1cc(-c2nccc(Nc3cc(N[C@H]4CCC[C@@H](O)C4)c(C#Cc4ccc(CN5CCOCC5)cc4)cn3)n2)cn1 is less than 0.9 nM?
Out: N

In: Decide: IC50 of CC(C)Nc1cc(Nc2ccnc(-c3cnn(S(=O)(=O)C4CC4)c3)n2)ncc1C#CCN1CCCC1 strictly below 0.9 nM?
Out: N

In: Regarding CN1CCC(C#Cc2cnc(Nc3ccnc(-c4cnn(S(=O)(=O)C5CC5)c4)n3)cc2N2CCC(C)(CO)CC2)CC1 , kindly confirm whether its IC50 is beneath 0.9 nM.
Out: Y

In: Take the compound CC1(CO)CCN(c2cc(Nc3ccnc(-c4cnn(CC(F)F)c4)n3)ncc2C#Cc2cnn(C(F)(F)F)c2)CC1 and say whether its IC50 is less than 0.9 nM.
Out: N

In: Threshold test, IC50 < 0.9 nM: O=S(=O)(C1CC1)n1cc(-c2nccc(Nc3cc(N[C@H]4CC[C@@H](O)CC4)c(C#CC4(O)CCCCC4)cn3)n2)cn1
Out: Y

In: Find out if reported IC50 for CN(C)C[C@H]1CC[C@@H](Nc2cc(Nc3ccnc(-c4cnn(S(=O)(=O)C5CC5)c4)n3)ncc2C#Cc2cnn(C3CC3)c2)CC1 is less than 0.9 nM
Out: Y

In: Does the reported IC50 of CC1(CO)CCN(c2cc(Nc3ccnc(-c4cnn(S(=O)(=O)C5CC5)c4)n3)ncc2C#Cc2ccncc2)CC1 stay below 0.9 nM?
Out: Y

In: Here's an entry: O=S(=O)(C1CC1)n1cc(-c2nccc(Nc3cc(N4CCC(C5(O)CC5)CC4)c(C#Cc4cnn(C(F)(F)F)c4)cn3)n2)cn1 . Is its IC50 below 0.9 nM?
Out: N
